Values were extracted from ChEMBL document CHEMBL6177993.

- Assay Overview: Drug distribution in female BALB/c mouse spleen measured after 24 hrs
- Type: ADME, tissue-based
- Measurement Context: in vivo
Endpoint Name: Drug uptake (nmol/mg)
Could you give me the number in nmol/mg? Just the number is fine.

Summary for this compound, `O=C(O)c1cccc(C(=O)Nc2c(C(c3ccc(F)cc3)c3ccc(F)cc3)cc(Cl)cc2C(c2ccc(F)cc2)c2ccc(F)cc2)c1` : Drug uptake is 9.01

---

- Tested on: Bacillus subtilis
- Assay Overview: Antibacterial activity against Bacillus subtilis IITKSM1 assessed as reduction in bacterial growth measured after 18 to 24 hrs by broth microdilution method
- Format: functional
- Measurement Context: time 18-24 hrs
Endpoint Name: MIC (µg/mL)
Could you give me the number in µg/mL? Just the number is fine.

>>> value_reported("CCOc1cc(C(c2ccccc2)c2ccccc2)c(NC(=O)c2cccc(C(=O)O)c2)c(C(c2ccccc2)c2ccccc2)c1")
1
>>> value_reported("CC(C)(C)c1cc(C(c2ccccc2)c2ccccc2)c(NC(=O)c2cccc(C(=O)O)c2)c(C(c2ccccc2)c2ccccc2)c1")
1
>>> value_reported("Cc1cc(C(c2ccccc2)c2ccccc2)c(NC(=O)c2cccc(C(=O)O)c2)c(C(c2ccccc2)c2ccccc2)c1")
64
>>> value_reported("O=C(O)c1cccc(C(=O)Nc2c(C(c3ccccc3)c3ccccc3)cc(C(c3ccccc3)c3ccccc3)cc2C(c2ccccc2)c2ccccc2)c1")
64

Summary for this compound, `O=C(O)c1cccc(C(=O)Nc2c(C(c3ccccc3)c3ccccc3)cc(C(F)(F)F)cc2C(c2ccccc2)c2ccccc2)c1` : MIC is 1

Summary for this compound, `O=C(O)c1cccc(C(=O)Nc2c(C(c3ccccc3)c3ccccc3)cc(Cl)cc2C(c2ccccc2)c2ccccc2)c1` : MIC is 2

Summary for this compound, `O=C(O)c1cccc(C(=O)Nc2c(C(c3ccccc3)c3ccccc3)cc([N+](=O)[O-])cc2C(c2ccccc2)c2ccccc2)c1` : MIC is 4

Summary for this compound, `CC(C)(C)c1cc(C(c2ccc(F)cc2)c2ccc(F)cc2)c(NC(=O)c2cccc(C(=O)O)c2)c(C(c2ccc(F)cc2)c2ccc(F)cc2)c1` : MIC is 1

Summary for this compound, `O=C(O)c1cccc(C(=O)Nc2c(C(c3ccccc3)c3ccccc3)cc(F)cc2C(c2ccccc2)c2ccccc2)c1` : MIC is 1
